Biological target: unphosphorylated c-FMS kinase (uFMS, Seq. ID no. 1) (Homo sapiens)
Sequence (P07333 538-972): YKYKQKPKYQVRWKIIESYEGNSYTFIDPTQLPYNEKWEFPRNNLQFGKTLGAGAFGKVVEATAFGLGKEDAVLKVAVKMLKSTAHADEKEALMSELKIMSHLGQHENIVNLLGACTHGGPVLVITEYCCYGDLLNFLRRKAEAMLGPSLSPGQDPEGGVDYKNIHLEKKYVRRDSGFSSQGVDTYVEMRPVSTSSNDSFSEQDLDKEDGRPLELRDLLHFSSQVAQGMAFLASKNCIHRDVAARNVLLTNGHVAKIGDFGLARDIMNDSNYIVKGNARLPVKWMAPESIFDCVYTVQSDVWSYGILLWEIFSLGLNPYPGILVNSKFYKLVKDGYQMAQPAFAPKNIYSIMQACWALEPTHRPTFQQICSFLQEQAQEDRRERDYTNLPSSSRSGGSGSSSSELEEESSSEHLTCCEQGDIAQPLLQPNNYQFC
Assay: uFMS kinase enzymatic assay (pyruvate kinase/lactate dehydrogenase coupled)
Details: ATP 500 μM, rate 3 to 4 h
result type: IC50

                  compound_structure_string  result_type  recorded_measurement
0  COC(C)(C)c1nn(-c2cc(C)c(Oc3ccnc(NC(C)=O)c3)cn2)c(=O)[nH]1         IC50        100 to 1000 nM
1  Cc1cc(-n2nc(C(C)(C)C)[nH]c2=O)ncc1Oc1ccnc(-c2cnn(C)c2)c1         IC50               ≤ 10 nM
2  Cc1nc(-n2nc(CC(C)(C)C)[nH]c2=O)ccc1Oc1ccnc(-c2cnn(C)c2)c1         IC50               ≤ 10 nM
3  CC(=O)Nc1cc(Oc2ccc(-n3nc(C(C)(C)C)[nH]c3=O)nc2C)ccn1         IC50          10 to 100 nM
4  Cc1nc(-n2nc(C3(C(F)(F)F)CCC3)[nH]c2=O)ccc1Oc1ccnc(-c2cnn(C)c2)c1         IC50               ≤ 10 nM
5  CCc1nc(-n2nc(C(C)(C)C)[nH]c2=O)ccc1Oc1ccnc(-c2cnn(C)c2)c1         IC50        100 to 1000 nM
6  Cc1nc(-n2nc(C(C)(C)C)[nH]c2=O)ccc1Oc1ccnc(-c2ccnc(N3CCN(C)CC3)c2)c1         IC50        100 to 1000 nM
7  Cc1nc(-n2nc(C(C)(C)C)[nH]c2=O)ccc1Oc1ccnc(-c2cnco2)c1         IC50          10 to 100 nM
8  Cc1nc(-n2nc(C3CCCCC3)[nH]c2=O)ccc1Oc1ccnc(-c2cnn(C)c2)c1         IC50               ≤ 10 nM
9  Cc1nc(-n2nc(C(C)(C)C)[nH]c2=O)ccc1Oc1ccnc(-c2cn(C)cn2)c1         IC50          10 to 100 nM
